Organism: Rattus norvegicus
Experiment: Open TG-GATES - Regimen: Daily Repeat
Assay type: toxicity, organism-based, Sprague-Dawley
Set-up: regimen Daily Repeat, gender Male, age 6 weeks
Details: in vivo, po, 0 mg/kg, 72 h, tissue Plasma, route gavage, dose level Control, time 3 day
Listing of recorded TC by entry.
Unit mg/dL implied. Number only.

Example results:
1. CCCCNC(=O)NS(=O)(=O)c1ccc(C)cc1 [TOLBUTAMIDE]; 79
2. Nc1ccc(Cc2ccc(N)cc2)cc1; 75
3. CCN(CC)C(=S)SSC(=S)N(CC)CC; 73.4
4. COc1ccc([C@@H]2Sc3ccccc3N(CCN(C)C)C(=O)[C@@H]2OC(C)=O)cc1 [DILTIAZEM]; 79.6
5. CN(C/C=C/C#CC(C)(C)C)Cc1cccc2ccccc12 [TERBINAFINE]; 74.6
6. NS(=O)(=O)c1cc(C(=O)O)c(NCc2ccco2)cc1Cl [FUROSEMIDE]; 91
7. O=C(O)c1ccccc1Nc1ccccc1 [FENAMIC ACID]; 73.4
8. CC(S)C(=O)NCC(=O)O (stereo not drawn) [TIOPRONIN]; 75
9. CCCCC1C(=O)N(c2ccccc2)N(c2ccccc2)C1=O [PHENYLBUTAZONE]; 86.6
10. O=c1ccc2ccccc2o1 [COUMARIN]; 79.6

Which TC value belongs to CCO [ALCOHOL] ?
83.8

CC(=O)[C@@]1(O)CC[C@H]2[C@@H]3C=C(Cl)C4=CC(=O)CC[C@]4(C)[C@H]3CC[C@@]21C [CHLORMADINONE] ?
72.2

CN(CCOc1ccc(CC2SC(=O)NC2=O)cc1)c1ccccn1.O=C(O)/C=C\C(=O)O (stereo not drawn) [ROSIGLITAZONE MALEATE] ?
83.4

---

Organism: Rattus norvegicus
Assay: Open TG-GATES - Regimen: Daily Repeat
Type: toxicity, organism-based, Sprague-Dawley
Parameters: regimen Daily Repeat, gender Male, age 6 weeks
Details: in vivo, po, 100 mg/kg, […], tissue Blood, route gavage, dose level Low, time 28 day
Listing of recorded Neu by entry.
Unit % implied. Number only.

Example results:
1) CCCCNC(=O)NS(=O)(=O)c1ccc(C)cc1 [TOLBUTAMIDE]; 14.8
2) CC(S)C(=O)NCC(=O)O (centres undefined); 14.6
3) CC(=O)[C@@]1(O)CC[C@H]2[C@@H]3C=C(Cl)C4=CC(=O)CC[C@]4(C)[C@H]3CC[C@@]21C; 11.4

# context switch: different molecule, same Neu
Which Neu value belongs to `O=C(O)c1ccccc1Nc1ccccc1` ?
18

---

Organism: Rattus norvegicus
Test: Open TG-GATES - Regimen: Daily Repeat
Type: toxicity, organism-based, Sprague-Dawley
Set-up: regimen Daily Repeat, gender Male, age 6 weeks
Conditions: in vivo, po, 100 mg/kg, […], tissue Liver, route gavage, dose level Low, time 28 day
Listing of recorded LIVER by entry.
Unit g implied. Number only.

1) O=C(O)c1ccccc1Nc1ccccc1; 16.7
2) CC(=O)[C@@]1(O)CC[C@H]2[C@@H]3C=C(Cl)C4=CC(=O)CC[C@]4(C)[C@H]3CC[C@@]21C; 14.2
3) CCCCNC(=O)NS(=O)(=O)c1ccc(C)cc1 [TOLBUTAMIDE]; 15.8

# context switch: different compound, same LIVER
Which LIVER value belongs to CC(S)C(=O)NCC(=O)O (centres undefined) ?
15.3
